- Tested on: L1210
- measurementProtocol: Effect on protein biosyntheses in leukemia L1210 cells
- Assay type: functional, cell-based
- conditionParameters: Mus musculus
pIC50: −log10 of the molar value.
parameter: pIC50

a: O=C1/C(=C/c2ccccc2[N+](=O)[O-])Cc2ccccc21
b: COc1ccccc1/C=C1\Cc2ccccc2C1=O
Request: Hey, which is lower on measured pIC50, a or b ? Field: selected label. Fill in the label of the entry you choose.
Response: b

###

- System: P388
- measurementProtocol: Inhibitory activity against Murine P388 cells
- Format: functional, cell-based
- conditionParameters: Mus musculus
pIC50: −log10 of the molar value.
parameter: pIC50

O=C1/C(=C/c2ccccc2Cl)CCc2ccccc21
4.76
O=C1/C(=C/c2ccccc2F)CCc2ccccc21
4.66
COc1ccccc1/C=C1\CCc2ccccc2C1=O
4.76
Cc1ccccc1/C=C1\CCCc2ccccc2C1=O
4.82
O=C1/C(=C/c2ccccc2[N+](=O)[O-])CCc2ccccc21
4.90

I: O=C1/C(=C/c2ccc(Cl)cc2Cl)CCc2ccccc21
II: COc1ccc(/C=C2\CCc3ccccc3C2=O)c(OC)c1
Request: When their pIC50 values are compared, which is larger, I or II ? Field: selected label. Fill in the label of the entry you choose.
Response: II
(II: 5.58, I: 4.76)

###

- System: CCRF-CEM
- measurementProtocol: Inhibitory concentration against CEM T-lymphocytes
- Format: functional, cell-based
- conditionParameters: Homo sapiens
parameter: IC50 (µM)

These recorded examples may help you get a feel for the data.
O=C(/C=C/c1cccc([N+](=O)[O-])c1)c1ccccc1
8.9
COc1ccc(/C=C2\CCCc3ccccc3C2=O)cc1OC
28
O=C1/C(=C/c2ccccc2Cl)CCc2ccccc21
8.8
O=C(/C=C/c1ccccc1[N+](=O)[O-])c1ccccc1
8.6
O=C1/C(=C/c2ccccc2F)Cc2ccccc21
47.1
O=C1/C(=C/c2ccccc2F)CCCc2ccccc21
28.2

a: O=C1/C(=C/c2ccc(Cl)cc2Cl)CCCc2ccccc21
b: COc1cccc(/C=C2\CCCc3ccccc3C2=O)c1OC
Request: When their IC50 values are compared, which is larger, a or b ? Field: selected label. Fill in the label of the entry you choose.
Response: a

1: COc1ccccc1/C=C/C(=O)c1ccccc1
2: O=C1/C(=C/c2ccccc2[N+](=O)[O-])CCCc2ccccc21
Request: When their IC50 values are compared, which is larger, 1 or 2 ? Field: selected label. Fill in the label of the entry you choose.
Response: 2
(2: 16.2 µM, 1: 8.56 µM)

I: O=C1/C(=C/c2ccccc2Cl)Cc2ccccc21
II: COc1ccc(/C=C2\Cc3ccccc3C2=O)c(OC)c1
III: COc1ccc(/C=C2\CCc3ccccc3C2=O)cc1OC
IV: COc1ccc(/C=C2\Cc3ccccc3C2=O)cc1OC
V: O=C1/C(=C/c2ccccc2Br)CCCc2ccccc21
Request: Place the items in sequence of falling IC50. Reply: labels, ordered per the request.
Response: IV, II, I, V, III
(IV: 286 µM, II: 87.1 µM, I: 57 µM, V: 32.1 µM, III: 8.56 µM)

###

- measurementProtocol: Partition coefficient (logP)
- Format: physicochemical
- conditionParameters: octanol/water
parameter: logP

O=C1/C(=C/c2ccccc2Br)CCCc2ccccc21
5.04
COc1cccc(/C=C2\CCCc3ccccc3C2=O)c1OC
4.54
COc1cc(/C=C2\CCCc3ccccc3C2=O)cc(OC)c1OC
4.29
COc1ccc(/C=C2\CCCc3ccccc3C2=O)cc1OC
4.13
COc1ccc(/C=C2\CCCc3ccccc3C2=O)c(OC)c1
5.01
Cc1ccccc1/C=C1\CCCc2ccccc2C1=O
4.92
O=C1/C(=C/c2ccc(Cl)cc2Cl)CCCc2ccccc21
5.65
COc1ccccc1/C=C1\CCCc2ccccc2C1=O
4.69
O=C1/C(=C/c2ccc(Cl)c(Cl)c2)CCCc2ccccc21
5.71
O=C1/C(=C/c2ccccc2F)CCCc2ccccc21
4.55
O=C1/C(=C/c2ccccc2[N+](=O)[O-])CCCc2ccccc21
4.07
O=C1/C(=C/c2ccccc2Cl)CCCc2ccccc21
5.04

###

- Tested on: P388
- measurementProtocol: Inhibitory activity against Murine P388 cells
- Type: functional, cell-based
- conditionParameters: Mus musculus
parameter: IC50 (µM)

COc1cccc(/C=C2\CCc3ccccc3C2=O)c1OC
12.3
COc1ccc(/C=C2\CCCc3ccccc3C2=O)cc1OC
8.19

a: O=C1/C(=C/c2ccc(Cl)cc2Cl)CCCc2ccccc21
b: COc1ccc(/C=C2\CCc3ccccc3C2=O)cc1OC
c: O=C(/C=C/c1ccccc1[N+](=O)[O-])c1ccccc1
d: COc1ccc(/C=C2\Cc3ccccc3C2=O)cc1OC
e: COc1cc(/C=C2\CCCc3ccccc3C2=O)cc(OC)c1OC
Request: Hi! Can you put these in order of IC50, lowest number first? Reply: labels, ordered per the request.
Response: c, b, e, a, d

I: COc1ccc(/C=C/C(=O)c2ccccc2)cc1
II: O=C1/C(=C/c2ccccc2Br)CCCc2ccccc21
Request: When their IC50 values are compared, which is larger, I or II ? Field: selected label. Fill in the label of the entry you choose.
Response: II

###

- System: P388
- measurementProtocol: Inhibitory activity against Murine P388 cells
- Type: functional, cell-based
- conditionParameters: Mus musculus
pIC50: −log10 of the molar value.
parameter: pIC50

These recorded examples may help you get a feel for the data.
O=C(/C=C/c1ccc([N+](=O)[O-])cc1)c1ccccc1
5.12
O=C1/C(=C/c2ccccc2F)Cc2ccccc21
4.50
COc1cccc(/C=C2\CCCc3ccccc3C2=O)c1OC
5.07
Cc1ccccc1/C=C1\Cc2ccccc2C1=O
4.62
COc1ccc(/C=C2\CCCc3ccccc3C2=O)c(OC)c1
5.11
COc1ccccc1/C=C1\Cc2ccccc2C1=O
4.55
COc1ccccc1/C=C1\CCCc2ccccc2C1=O
4.74
O=C1/C(=C/c2ccc(Cl)c(Cl)c2)CCc2ccccc21
4.88

1: O=C1/C(=C/c2ccccc2F)CCCc2ccccc21
2: O=C1/C(=C/c2ccccc2[N+](=O)[O-])CCCc2ccccc21
3: COc1cc(/C=C2\CCc3ccccc3C2=O)cc(OC)c1OC
4: O=C1/C(=C/c2ccccc2[N+](=O)[O-])Cc2ccccc21
Request: Place the items in sequence of falling pIC50. Reply: labels, ordered per the request.
Response: 4, 3, 1, 2

###

- System: CCRF-CEM
- measurementProtocol: Inhibitory concentration against CEM T-lymphocytes
- Assay type: functional, cell-based
- conditionParameters: Homo sapiens
parameter: IC50 (µM)

These recorded examples may help you get a feel for the data.
COc1cccc(/C=C/C(=O)c2ccccc2)c1
8.55
Cc1ccccc1/C=C1\CCc2ccccc2C1=O
43.2
O=C(/C=C/c1ccc([N+](=O)[O-])cc1)c1ccccc1
13.8

1: COc1ccccc1/C=C1\CCCc2ccccc2C1=O
2: O=C1/C(=C/c2ccc(Cl)c(Cl)c2)CCc2ccccc21
3: COc1ccc(/C=C2\CCCc3ccccc3C2=O)c(OC)c1
Request: Place the items in sequence of falling IC50. Reply: labels, ordered per the request.
Response: 3, 1, 2

1: O=C1/C(=C/c2ccccc2Br)CCc2ccccc21
2: COc1cccc(/C=C2\Cc3ccccc3C2=O)c1OC
Request: When their IC50 values are compared, which is larger, 1 or 2 ? Field: selected label. Fill in the label of the entry you choose.
Response: 2
(2: 37.6 µM, 1: 25.4 µM)

P: COc1cccc(/C=C2\CCc3ccccc3C2=O)c1OC
Q: O=C1/C(=C/c2ccccc2[N+](=O)[O-])Cc2ccccc21
R: O=C1/C(=C/c2ccccc2[N+](=O)[O-])CCc2ccccc21
S: Cc1ccccc1/C=C1\Cc2ccccc2C1=O
Request: Place the items in sequence of falling IC50. Reply: labels, ordered per the request.
Response: S, P, R, Q
(S: 56.5 µM, P: 28.7 µM, R: 7.22 µM, Q: 3.53 µM)

1: O=C1/C(=C/c2ccccc2F)CCc2ccccc21
2: COc1ccc(/C=C/C(=O)c2ccccc2)cc1
3: COc1ccccc1/C=C1\Cc2ccccc2C1=O
Request: Place the items in sequence of falling IC50. Reply: labels, ordered per the request.
Response: 3, 2, 1
(3: 58.2 µM, 2: 33.5 µM, 1: 20.8 µM)

###

- System: CCRF-CEM
- measurementProtocol: Inhibitory concentration against CEM T-lymphocytes
- Format: functional, cell-based
- conditionParameters: Homo sapiens
parameter: IC50 (µM)

These recorded examples may help you get a feel for the data.
O=C1/C(=C/c2ccc(Cl)c(Cl)c2)CCCc2ccccc21
11.8
COc1ccc(/C=C2\CCc3ccccc3C2=O)c(OC)c1
1.88
O=C1/C(=C/c2ccc(Cl)c(Cl)c2)Cc2ccccc21
397
COc1ccccc1/C=C1\CCc2ccccc2C1=O
12.6
O=C1/C(=C/c2ccc(Cl)cc2Cl)CCc2ccccc21
8.73

I: O=C1/C(=C/c2ccccc2Br)Cc2ccccc21
II: O=C1/C(=C/c2ccccc2Cl)CCCc2ccccc21
Request: Hey, which is lower on measured IC50, I or II ? Field: selected label. Fill in the label of the entry you choose.
Response: II

1: COc1cc(/C=C2\CCc3ccccc3C2=O)cc(OC)c1OC
2: Cc1ccccc1/C=C1\CCCc2ccccc2C1=O
Request: Hey, which is lower on measured IC50, 1 or 2 ? Field: selected label. Fill in the label of the entry you choose.
Response: 1
